measured_on: Neuropeptide Y receptor type 4 (Homo sapiens, UniProt P50391)
Sequence (P50391 whole entry): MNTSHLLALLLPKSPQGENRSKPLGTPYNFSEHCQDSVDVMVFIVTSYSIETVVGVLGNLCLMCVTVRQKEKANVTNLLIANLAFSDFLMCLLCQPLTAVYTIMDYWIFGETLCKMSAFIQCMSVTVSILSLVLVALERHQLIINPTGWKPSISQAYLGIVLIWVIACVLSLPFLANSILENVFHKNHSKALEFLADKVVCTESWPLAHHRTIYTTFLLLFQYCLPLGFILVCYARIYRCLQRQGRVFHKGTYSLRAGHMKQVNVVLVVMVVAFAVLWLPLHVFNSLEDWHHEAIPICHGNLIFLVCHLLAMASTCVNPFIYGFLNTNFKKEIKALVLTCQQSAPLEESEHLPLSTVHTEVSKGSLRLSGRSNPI
test_method_notes: Displacement of [3H]UR-KK200 from human neuropeptide Y Y4 receptor expressed in CHO-mtAEQ cells co-expressing Gqi5 measured after 90 mins by scintillation counting analysis
Format: cell-based
reported_conditions: read-out: Ki
Residues, ends and D or L forms follow the SMILES beside them.
Please go through the items and note down their pKi.
Numbers only, as −log10 of the molar value.

Guide cases for pKi, answers given:
molecule	pKi
CC(C)C[C@H](NC(=O)[C@H](CCCNC(=N)NC(=O)NCCCCN)NC(=O)[C@H](Cc1ccc(O)cc1)NC(=O)[C@H](CCCNC(=N)N)NC(=O)CCC(=O)O)C(=O)N[C@@H](CCCNC(=N)N)C(=O)N[C@@H](Cc1ccc(O)cc1)C(N)=O	7.89
CC(C)C[C@H](NC(=O)[C@@H]1CCCNC(=N)NC(=O)NCCCCNC(=O)CCC(=O)N[C@@H](CCCNC(=N)N)C(=O)N1)C(=O)N[C@@H](CCCNC(=N)N)C(=O)N[C@@H](Cc1ccc(O)cc1)C(N)=O (HELM PEPTIDE1{R.[N=C(NCCC[C@H](N[*:1])C(=O)[*:2])N[*:3]].L.R.Y.[am]}|CHEM1{[O=C(CCC(=O)[*:1])NCCCCNC(=O)[*:2]]}$PEPTIDE1,CHEM1,1:R1-1:R1|PEPTIDE1,CHEM1,2:R3-1:R2$$$V2.0)	8.85

// moving on: another record for pKi
Short answer for N=C(N)NCCC[C@@H]1NC(=O)CCC(=O)NCCCNC(=O)NC(=N)NCCC[C@@H](C(=O)N[C@@H](Cc2c[nH]c3ccccc23)C(=O)N[C@@H](CCCNC(=N)N)C(=O)N[C@@H](Cc2ccc(O)cc2)C(N)=O)NC(=O)[C@H](Cc2ccc(O)cc2)NC1=O (HELM PEPTIDE1{R.Y.[N=C(NCCC[C@H](N[*:1])C(=O)[*:2])N[*:3]].W.R.Y.[am]}|CHEM1{[O=C(CCC(=O)[*:1])NCCCNC(=O)[*:2]]}$PEPTIDE1,CHEM1,1:R1-1:R1|PEPTIDE1,CHEM1,3:R3-1:R2$$$V2.0) : pKi was 7.55

###

measured_on: Neuropeptide Y receptor type 1 (Homo sapiens, UniProt P25929)
Sequence (P25929 whole entry): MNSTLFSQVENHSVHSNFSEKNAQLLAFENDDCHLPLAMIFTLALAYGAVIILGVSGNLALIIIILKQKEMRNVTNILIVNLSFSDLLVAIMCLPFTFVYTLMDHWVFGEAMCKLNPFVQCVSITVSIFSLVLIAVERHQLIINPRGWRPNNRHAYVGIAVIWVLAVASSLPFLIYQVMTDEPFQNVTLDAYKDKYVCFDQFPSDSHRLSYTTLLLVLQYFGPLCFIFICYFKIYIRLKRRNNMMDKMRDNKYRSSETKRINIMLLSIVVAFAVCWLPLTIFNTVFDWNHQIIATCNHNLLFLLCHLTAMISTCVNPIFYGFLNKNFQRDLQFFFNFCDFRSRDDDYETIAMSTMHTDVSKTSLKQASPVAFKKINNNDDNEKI
test_method_notes: Displacement of [3H]UR-MK299 from human neuropeptide Y Y1 receptor in human SK-N-MC cells measured after 90 mins by scintillation counting analysis
Type: cell-based
reported_conditions: read-out: Ki
Residues, ends and D or L forms follow the SMILES beside them.
Can you tell me Ki for the items I'm about to list?

Please give Ki for each item listed below.
1. N=C(N)NCCC[C@@H]1NC(=O)CCC(=O)NCCCCNC(=O)NC(=N)NCCC[C@@H](C(=O)N[C@@H](Cc2c[nH]c3ccccc23)C(=O)N[C@@H](CCCNC(=N)N)C(=O)N[C@@H](Cc2ccc(O)cc2)C(N)=O)NC(=O)[C@H](Cc2ccc(O)cc2)NC1=O (HELM PEPTIDE1{R.Y.[N=C(NCCC[C@H](N[*:1])C(=O)[*:2])N[*:3]].W.R.Y.[am]}|CHEM1{[O=C(CCC(=O)[*:1])NCCCCNC(=O)[*:2]]}$PEPTIDE1,CHEM1,1:R1-1:R1|PEPTIDE1,CHEM1,3:R3-1:R2$$$V2.0)
2. N=C(N)NCCC[C@H](NC(=O)CCC(=O)O)C(=O)N[C@@H](Cc1ccc(O)cc1)C(=O)N[C@@H](CCCNC(=N)NC(=O)NCCCCN)C(=O)N[C@@H](Cc1c[nH]c2ccccc12)C(=O)N[C@@H](CCCNC(=N)N)C(=O)N[C@@H](Cc1ccc(O)cc1)C(N)=O (single isomer, unassigned)
3. CC(C)C[C@H](NC(=O)[C@@H]1CCCNC(=N)NC(=O)NCCCCNC(=O)CCC(=O)N[C@@H](CCCCN)C(=O)N[C@@H](Cc2ccc(O)cc2)C(=O)N1)C(=O)N[C@@H](CCCNC(=N)N)C(=O)N[C@@H](Cc1ccc(O)cc1)C(N)=O (HELM PEPTIDE1{K.Y.[N=C(NCCC[C@H](N[*:1])C(=O)[*:2])N[*:3]].L.R.Y.[am]}|CHEM1{[O=C(CCC(=O)[*:1])NCCCCNC(=O)[*:2]]}$PEPTIDE1,CHEM1,1:R1-1:R1|PEPTIDE1,CHEM1,3:R3-1:R2$$$V2.0)

Reply text:
1. > 3 µM
2. > 3 µM
3. > 3 µM
